MIC values, listed per item
Tested on: S. aureus ASAU1028 (CA-MRSA, USA400)
Assay Endpoint: MIC

| Compound | Result |
| --- | --- |
| Cc1nc(SC2=C(C(=O)O)N3C(=O)[C@@H](NC(=O)/C(=N\O)c4nc(N)sc4Cl)[C@H]3CC2)sc1C [33/1] | 1 to 8 µg/mL |
| CNCCSCc1ncccc1SC1=C(C(=O)O)N2C(=O)[C@@H](NC(=O)/C(=N\O)c3nc(N)sc3Cl)[C@H]2CC1 [29/1] | ≤ 1 µg/mL |
| NCc1ncccc1SC1=C(C(=O)O)N2C(=O)[C@@H](NC(=O)/C(=N\O)c3nc(N)sc3Cl)[C@H]2CC1 [31/1] | ≤ 1 µg/mL |
| Nc1nc(/C(=N/O)C(=O)N[C@@H]2C(=O)N3C(C(=O)O)=C(Sc4ccncc4)CC[C@H]23)c(Cl)s1 [27/1] | ≤ 1 µg/mL |

====

Read-out record for S. aureus ASAU1028 (CA-MRSA, USA400): MIC
Assay Endpoint: MIC

| Compound | Tested Target | Result |
| --- | --- | --- |
| CO/N=C(\C(=O)N[C@@H]1C(=O)N2C(C(=O)O)=C(Sc3cccnc3CN)CC[C@H]12)c1nc(N)sc1Cl | S. aureus ASAU1028 (CA-MRSA, USA400) | > 8 µg/mL |
| CO/N=C(\C(=O)N[C@@H]1C(=O)N2C(C(=O)O)=C(Sc3cccnc3N)CC[C@H]12)c1nc(N)sc1Cl | S. aureus ASAU1028 (CA-MRSA, USA400) | 1 to 8 µg/mL |
| CO/N=C(\C(=O)N[C@@H]1C(=O)N2C(C(=O)O)=C(Sc3cccnc3CCN)CC[C@H]12)c1nc(N)sc1Cl | S. aureus ASAU1028 (CA-MRSA, USA400) | 1 to 8 µg/mL |
| CO/N=C(\C(=O)N[C@@H]1C(=O)N2C(C(=O)O)=C(Sc3nncs3)CC[C@H]12)c1nsc(N)n1 | S. aureus ASAU1028 (CA-MRSA, USA400) | 1 to 8 µg/mL |
| Nc1nc(/C(=N/O)C(=O)N[C@@H]2C(=O)N3C(C(=O)O)=C(Sc4cccnc4CSC4CCNC4)CC[C@H]23)c(Cl)s1 (some centres unmarked) | S. aureus ASAU1028 (CA-MRSA, USA400) | ≤ 1 µg/mL |
| CO/N=C(\C(=O)N[C@@H]1C(=O)N2C(C(=O)O)=C(Sc3ccncc3CSCCN)CC[C@H]12)c1nsc(N)n1 | S. aureus ASAU1028 (CA-MRSA, USA400) | 1 to 8 µg/mL |
| Nc1nc(/C(=N/O)C(=O)N[C@@H]2C(=O)N3C(C(=O)O)=C(Sc4cccnc4)CC[C@H]23)c(Cl)s1 | S. aureus ASAU1028 (CA-MRSA, USA400) | 1 to 8 µg/mL |
| CO/N=C(\C(=O)N[C@@H]1C(=O)N2C(C(=O)O)=C(Sc3cccnc3CSCCN)CC[C@H]12)c1nsc(N)n1 | S. aureus ASAU1028 (CA-MRSA, USA400) | 1 to 8 µg/mL |

====

Assay Name: Pharmacokinetic study in rats
Type: in vivo
Test Context: male, Sprague-Dawley, rat, plasma; rats, 10 mg/kg IV

| Molecule Smiles | Units Symbol | half-life |
| --- | --- | --- |
| NCCSCc1cnccc1SC1=C(C(=O)O)N2C(=O)[C@@H](NC(=O)/C(=N\O)c3nsc(N)n3)[C@H]2CC1 | h | 1.8 |

====

Reported values of MIC for individual entries
System: S. aureus ASAU1043 (MRSA, CIP, ERY, CLI, GEN resistant)
Assay Name: MIC assay, S. aureus ASAU1043
Format: cell-based
Test Context: Staphylococcus aureus, read-out: MIC ASAU 1043
Assay Endpoint: MIC

| Compound | Assay Endpoint | Result |
| --- | --- | --- |
| CO/N=C(\C(=O)N[C@@H]1C(=O)N2C(C(=O)O)=C(Sc3cccnc3N)CC[C@H]12)c1nc(N)sc1Cl | MIC | > 8 µg/mL |
| Nc1nc(/C(=N\O)C(=O)NC2C(=O)N3C(C(=O)O)=C(/C=C4\CCN(C5CCNC5)C4=O)CS[C@H]23)ns1 (some centres unmarked) [Comparative Compound 1, reference compound] | MIC | 1 to 8 µg/mL |
| Nc1nc(/C(=N/O)C(=O)N[C@@H]2C(=O)N3C(C(=O)O)=C(Sc4ccncc4)CC[C@H]23)c(Cl)s1 | MIC | 1 to 8 µg/mL |
| CO/N=C(\C(=O)N[C@@H]1C(=O)N2C(C(=O)O)=C(Sc3ccncc3)CC[C@H]12)c1nc(N)sc1Cl | MIC | > 8 µg/mL |
| Nc1nc(/C(=N/O)C(=O)N[C@@H]2C(=O)N3C(C(=O)O)=C(Sc4cscn4)CC[C@H]23)c(Cl)s1 | MIC | > 8 µg/mL |

====

Below: a set of entries, each annotated with reported MIC.
System: S. aureus ASAU1043 (MRSA, CIP, ERY, CLI, GEN resistant)
Assay Name: MIC assay, S. aureus ASAU1043
Assay type: cell-based
Test Context: Staphylococcus aureus, read-out: MIC ASAU 1043
Protocol: The in vitro MIC for bacterial isolates may be obtained in the following manner: a test compound is incorporated into a series of two-fold dilutions in cation adjusted Mueller-Hinton broth (CAMHB). Different bacterial strains diluted to provide a uniform inoculum are added to the CAMHB containing test compounds. A well without test compound is included for each strain as a growth control. […]
Assay Endpoint: MIC

| Molecule | Assay Endpoint | Result |
| --- | --- | --- |
| NCc1ncccc1SC1=C(C(=O)O)N2C(=O)[C@@H](NC(=O)/C(=N\O)c3nc(N)sc3Cl)[C@H]2CC1 | MIC | 1 to 8 µg/mL |
| CO/N=C(\C(=O)N[C@@H]1C(=O)N2C(C(=O)O)=C(Sc3cccnc3CCN)CC[C@H]12)c1nc(N)sc1Cl | MIC | > 8 µg/mL |
| CO/N=C(\C(=O)N[C@@H]1C(=O)N2C(C(=O)O)=C(Sc3ccncc3CSCCN)CC[C@H]12)c1nsc(N)n1 | MIC | > 8 µg/mL |
| Nc1nc(/C(=N/O)C(=O)N[C@@H]2C(=O)N3C(C(=O)O)=C(Sc4cccnc4CSC4CCNC4)CC[C@H]23)c(Cl)s1 (stereo partly shown) | MIC | 1 to 8 µg/mL |
| CNCCSCc1ncccc1SC1=C(C(=O)O)N2C(=O)[C@@H](NC(=O)/C(=N\O)c3nc(N)sc3Cl)[C@H]2CC1 | MIC | 1 to 8 µg/mL |
| CO/N=C(\C(=O)N[C@@H]1C(=O)N2C(C(=O)O)=C(Sc3nnc(N)s3)CC[C@H]12)c1nsc(N)n1 | MIC | > 8 µg/mL |
| CO/N=C(\C(=O)N[C@@H]1C(=O)N2C(C(=O)O)=C(Sc3nc(C)c(C)s3)CC[C@H]12)c1nc(N)sc1Cl | MIC | > 8 µg/mL |

====

System: S. aureus ASAU1043 (MRSA, CIP, ERY, CLI, GEN resistant)
Assay Name: MIC assay, S. aureus ASAU1043
Format: cell-based
Test Context: Staphylococcus aureus, read-out: MIC ASAU 1043
Form field: MIC (one value per entry).

| Compound | MIC |
| --- | --- |
| Nc1nc(/C(=N/O)C(=O)N[C@@H]2C(=O)N3C(C(=O)O)=C(Sc4nnc(N)s4)CC[C@H]23)ns1 [45/1] | > 8 µg/mL |
| Nc1nc(/C(=N/O)C(=O)N[C@@H]2C(=O)N3C(C(=O)O)=C(Sc4cccnc4)CC[C@H]23)c(Cl)s1 [34/1] | > 8 µg/mL |
| CO/N=C(\C(=O)N[C@@H]1C(=O)N2C(C(=O)O)=C(Sc3nncs3)CC[C@H]12)c1nsc(N)n1 [50/1] | > 8 µg/mL |
| Nc1nc(/C(=N/O)C(=O)N[C@@H]2C(=O)N3C(C(=O)O)=C(Sc4cccnc4N)CC[C@H]23)c(Cl)s1 [28/1] | > 8 µg/mL |
| CO/N=C(\C(=O)N[C@@H]1C(=O)N2C(C(=O)O)=C(Sc3cccnc3CN)CC[C@H]12)c1nc(N)sc1Cl [43/1] | > 8 µg/mL |
| CO/N=C(\C(=O)N[C@@H]1C(=O)N2C(C(=O)O)=C(Sc3cccnc3CSC3CCNC3)CC[C@H]12)c1nc(N)sc1Cl (stereo partly drawn) [42/1] | > 8 µg/mL |
| Cc1nc(SC2=C(C(=O)O)N3C(=O)[C@@H](NC(=O)/C(=N\O)c4nc(N)sc4Cl)[C@H]3CC2)sc1C [33/1] | 1 to 8 µg/mL |
| CO/N=C(\C(=O)N[C@@H]1C(=O)N2C(C(=O)O)=C(Sc3cccnc3CSCCN)CC[C@H]12)c1nsc(N)n1 [51/1] | > 8 µg/mL |
| CNCCSCc1ncccc1SC1=C(C(=O)O)N2C(=O)[C@@H](NC(=O)/C(=N\OC)c3nc(N)sc3Cl)[C@H]2CC1 [41/1] | > 8 µg/mL |
| Nc1nc(/C(=N/O)C(=O)N[C@@H]2C(=O)N3C(C(=O)O)=C(Sc4nncs4)CC[C@H]23)ns1 [46/1] | > 8 µg/mL |
| NCCc1ncccc1SC1=C(C(=O)O)N2C(=O)[C@@H](NC(=O)/C(=N\O)c3nc(N)sc3Cl)[C@H]2CC1 [32/1] | > 8 µg/mL |
| NCCSCc1ncccc1SC1=C(C(=O)O)N2C(=O)[C@@H](NC(=O)/C(=N\O)c3nsc(N)n3)[C@H]2CC1 [47/1] | 1 to 8 µg/mL |
| Nc1nc(/C(=N/O)C(=O)N[C@@H]2C(=O)N3C(C(=O)O)=C(Sc4ccncc4)CC[C@H]23)ns1 [44/1] | > 8 µg/mL |
| NCCSCc1cnccc1SC1=C(C(=O)O)N2C(=O)[C@@H](NC(=O)/C(=N\O)c3nsc(N)n3)[C@H]2CC1 [48/1] | 1 to 8 µg/mL |
| CO/N=C(\C(=O)N[C@@H]1C(=O)N2C(C(=O)O)=C(Sc3ccncc3)CC[C@H]12)c1nsc(N)n1 [53/1] | > 8 µg/mL |
